- assaySystem: Histone deacetylase 2 (Homo sapiens)
- Sequence (Q92769 whole entry): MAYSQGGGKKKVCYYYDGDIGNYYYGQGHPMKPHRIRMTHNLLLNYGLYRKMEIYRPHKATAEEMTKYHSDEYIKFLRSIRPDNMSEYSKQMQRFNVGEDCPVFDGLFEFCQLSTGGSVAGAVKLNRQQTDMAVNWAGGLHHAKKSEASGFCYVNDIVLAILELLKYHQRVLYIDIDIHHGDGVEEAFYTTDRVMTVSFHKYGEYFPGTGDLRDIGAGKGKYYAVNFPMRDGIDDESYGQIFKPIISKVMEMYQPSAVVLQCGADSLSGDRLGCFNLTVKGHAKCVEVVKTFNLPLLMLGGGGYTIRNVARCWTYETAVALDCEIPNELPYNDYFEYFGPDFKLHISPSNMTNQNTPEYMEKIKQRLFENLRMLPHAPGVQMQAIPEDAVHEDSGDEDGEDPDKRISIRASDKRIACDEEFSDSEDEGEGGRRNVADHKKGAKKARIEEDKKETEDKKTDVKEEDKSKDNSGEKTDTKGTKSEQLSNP
pIC50: −log10 of the molar value.
Label rule, in plain words: pIC50 of 6 and up is Yes, under 6 is No.

Lookup: Assess whether reported pIC50 for `CCOc1cc(NC(=O)CCCCCC(=O)Nc2cc(-c3ccc(C)s3)ccc2N)cc2c1OCC([N+](=O)[O-])=C2` sits at 6 or higher.
Found: No

Lookup: Could you tell me if the measured pIC50 of `CCOc1cc(NC(=O)CCCCCCC(=O)Nc2ccccc2N)cc2c1OCC([N+](=O)[O-])=C2` reaches 6 or more?
Found: Yes

Lookup: Textbook exercise: given the entry `CCOc1cc(NC(=O)CCCCNC(=O)[C@H](N)Cc2ccccc2)cc2c1OCC([N+](=O)[O-])=C2` , state whether its pIC50 is greater than or equal to 6.
Found: No
